# PROTOCOL DETAILS: 24-hr pH solubility and form stability in six pH buffers at 25° C.
# Type: physicochemical
# DETAILS: aqueous buffer, pH 8.0 buffer, 25° C., read-out: Solubility
READOUT NAME: solubility at 24 h (µg/mL)
Just the number in µg/mL, nothing appended.

Q: In one line, give reported solubility at 24 h of the entry O.O=C([O-])c1nn[nH]c1Oc1ccc(-c2ccc(C3CC(F)(F)C3)cc2)cc1.[Na+] [Form A] .
A: 404

* * *

# PROTOCOL DETAILS: Solubility in water at various temperatures
# Type: physicochemical
# DETAILS: 25~70° C., read-out: solubility as a function of temperature
READOUT NAME: solubility

Q: Provide measured solubility value, entry: O.O=C([O-])c1nn[nH]c1Oc1ccc(-c2ccc(C3CC(F)(F)C3)cc2)cc1.[Na+] [Form A]
A: 1100 to 2300 µg/mL

* * *

# PROTOCOL DETAILS: 24-hr pH solubility and form stability in six pH buffers at 25° C.
# Type: physicochemical
# DETAILS: aqueous buffer, pH 7.0 buffer, 25° C., read-out: Solubility
READOUT NAME: solubility at 24 h
Report as: number unit

Q: Provide only the value of recorded solubility at 24 h for O.O=C([O-])c1nn[nH]c1Oc1ccc(-c2ccc(C3CC(F)(F)C3)cc2)cc1.[Na+] [Form A]
A: 55 µg/mL

* * *

# PROTOCOL DETAILS: 24-hr pH solubility and form stability in six pH buffers at 25° C.
# Type: physicochemical
# DETAILS: ph buffer, aqueous buffer, pH 2.0~10.0, 25° C., read-out: solubility as a function of pH
# Protocol: High Performance Liquid Chromatography (HPLC): HPLC of Agilent 1260 with DAD detector was employed to detect the purity and solubility, with the methods shown in Table 1. After shaking at 100 rpm at 25° C. for 24 hrs, the suspensions were centrifuged. The solids were analyzed by XRPD for crystal form, and the filtrates of supernatants were analyzed by HPLC for solubility and by pH meter for pH value.
READOUT NAME: solubility at 24 h

Q: Determine its reported solubility at 24 h: O.O=C([O-])c1nn[nH]c1Oc1ccc(-c2ccc(C3CC(F)(F)C3)cc2)cc1.[Na+] [Form A]
A: < 4800 µg/mL

* * *

# PROTOCOL DETAILS: Solubility in water at various temperatures
# Assay type: physicochemical
# DETAILS: 25° C., 1~2 hrs, read-out: Solubility
READOUT NAME: solubility (µg/mL)
The answer is to be given in µg/mL; state only the numeric part.

Q: Supply solubility value. Item: O.O=C([O-])c1nn[nH]c1Oc1ccc(-c2ccc(C3CC(F)(F)C3)cc2)cc1.[Na+] [Form A]
A: 1100

* * *

# PROTOCOL DETAILS: 24-hr pH solubility and form stability in six pH buffers at 25° C.
# Format: physicochemical
# DETAILS: aqueous buffer, pH 10.0 buffer, 25° C., read-out: Solubility
READOUT NAME: solubility at 24 h (mg/mL)
Reply numerically in mg/mL, unit not repeated.

Q: Name the recorded solubility at 24 h of the item O.O=C([O-])c1nn[nH]c1Oc1ccc(-c2ccc(C3CC(F)(F)C3)cc2)cc1.[Na+] [Form A] in your answer.
A: 4.83

* * *

# PROTOCOL DETAILS: Solubility in 20% EtOH in water and 20% DMAc in water at room temperature
# Type: physicochemical
# DETAILS: organic solvent or mixture, 20% DMAc in water, 20~60 mins
READOUT NAME: solubility
// unit must come after the numeric part

Q: Read the entry O.O=C([O-])c1nn[nH]c1Oc1ccc(-c2ccc(C3CC(F)(F)C3)cc2)cc1.[Na+] [Form A] and write its reported solubility.
A: 3300 µg/mL

* * *

# PROTOCOL DETAILS: Solubility in water at various temperatures
# Assay type: physicochemical
# DETAILS: 60° C., 1~2 hrs, read-out: Solubility
READOUT NAME: solubility
State the result as a value with its unit after it.

Q: Query solubility for O.O=C([O-])c1nn[nH]c1Oc1ccc(-c2ccc(C3CC(F)(F)C3)cc2)cc1.[Na+] [Form A]
A: 1860 µg/mL

Reference source for all entries: patent US20260285817A1
